- Protocol: Stability of compound in human plasma assessed as half life
- Format: ADME, cell-free
Measurement Name: half-life

Compound: COC(=O)CCNC(=O)[C@@H]1O[P@](=O)(OCOC(=O)c2cncs2)OCC1(C)C (relative stereo)
half-life: < 9.6 min

Could you now consider this next compound?
Please give the measured half-life for this compound: COC(=O)CCNC(=O)[C@@H]1O[P@@](=O)(OCOC(=O)c2cncs2)OCC1(C)C (relative stereo)
< 9.6 min

###

- Protocol: Stability of compound in human whole blood assessed as half life
- Type: ADME, tissue-based
Measurement Name: half-life

Past entries and their recorded results:
Compound: COC(=O)CCNC(=O)[C@@H]1O[P@](=O)(OCOC(=O)c2cc(C)nn2C)OCC1(C)C (relative stereo)
half-life: < 9.6 min

Compound: CC(C)(C)OC(=O)CCNC(=O)[C@@H]1OP(=O)(OCOC(=O)C(C)(C)C)OCC1(C)C (mixture of isomers)
half-life: > 60 min

Compound: COC(=O)CCNC(=O)[C@@H]1O[P@](=O)(OCOC(=O)c2ccns2)OCC1(C)C (relative stereo)
half-life: < 9.6 min

Compound: CCOC(=O)CCNC(=O)[C@@H]1O[P@@](=O)(OCOC(=O)C(C)(C)C)OCC1(C)C
half-life: 16.8 min

Could you now consider this next compound?
Please give the measured half-life for this compound: COC(=O)CCNC(=O)C1OP(=O)(Oc2ccc(F)cc2)OCC1(C)C (mixture of isomers)
> 60 min

###

- Protocol: Stability of compound in human whole blood assessed as half life
- Format: ADME, tissue-based
Catalogue of half-life values

Past entries and their recorded results:
Compound: COC(=O)CCNC(=O)[C@@H]1O[P@@](=O)(OCOC(=O)c2ccns2)OCC1(C)C (relative stereo)
Measurement Name: half-life
Result: < 9.6 min
--
Compound: CC(C)(C)C(=O)OCO[P@@]1(=O)OCC(C)(C)[C@H](C(=O)NCCC(=O)OCCc2ccccn2)O1
Measurement Name: half-life
Result: < 9.6 min

Please give the measured half-life for this compound: CCc1cc(C(=O)OCO[P@]2(=O)OCC(C)(C)[C@H](C(=O)NCCC(=O)OC)O2)n(C)n1 (relative stereo)
< 9.6 min

Please give the measured half-life for this compound: COC(=O)CCNC(=O)[C@@H]1O[P@](=O)(Oc2ccc(S(F)(F)(F)(F)F)cc2)OCC1(C)C
30 min

Please give the measured half-life for this compound: COC(=O)CCNC(=O)[C@@H]1O[P@@](=O)(OCOC(=O)c2cc(C(C)(C)C)n[nH]2)OCC1(C)C
> 60 min

Please give the measured half-life for this compound: CC(C)(C)C(=O)OCO[P@@]1(=O)OCC(C)(C)[C@H](C(=O)NCCC(=O)O)O1
> 60 min

Please give the measured half-life for this compound: COC(=O)CCNC(=O)[C@@H]1O[P@](=O)(Oc2ccc(C[C@H](N)C(=O)OC)cc2)OCC1(C)C
30 min

Please give the measured half-life for this compound: COC(=O)CCNC(=O)[C@@H]1O[P@@](=O)(OCOC(=O)c2ccnn2C)OCC1(C)C (relative stereo)
> 60 min

###

- Protocol: Stability of compound in human whole blood assessed as half life
- Format: ADME, tissue-based
Measurement Name: half-life

Past entries and their recorded results:
Molecule: CC(C)(C)C(=O)OCO[P@@]1(=O)OCC(C)(C)[C@H](C(=O)NCCC(=O)OCCS(C)(=O)=O)O1
Result: < 9.6 min

Molecule: CC(C)(C)C(=O)OCO[P@@]1(=O)OCC(C)(C)[C@H](C(=O)NCCC(=O)OCc2cncs2)O1
Result: < 9.6 min

Molecule: COC(=O)CCNC(=O)[C@@H]1O[P@@](=O)(OCOC(=O)c2ocnc2C)OCC1(C)C (relative stereo)
Result: 31.2 min

Please give the measured half-life for this molecule: COC(=O)CCNC(=O)[C@@H]1O[P@](=O)(OCOC(=O)c2ccnn2C)OCC1(C)C
< 9.6 min

Please give the measured half-life for this molecule: COC(=O)CCNC(=O)[C@@H]1O[P@@](=O)(OCOC(=O)c2scnc2C(C)(C)C)OCC1(C)C (relative stereo)
> 60 min
